All figures here come from patent US10457703B2.

So I've got a bunch of molecules here, and I need their pEC50 values.
TESTED TARGET: human FXR (NR1H4) (Homo sapiens (Human))
Sequence (Q96RI1 whole entry, the tested form may be a part): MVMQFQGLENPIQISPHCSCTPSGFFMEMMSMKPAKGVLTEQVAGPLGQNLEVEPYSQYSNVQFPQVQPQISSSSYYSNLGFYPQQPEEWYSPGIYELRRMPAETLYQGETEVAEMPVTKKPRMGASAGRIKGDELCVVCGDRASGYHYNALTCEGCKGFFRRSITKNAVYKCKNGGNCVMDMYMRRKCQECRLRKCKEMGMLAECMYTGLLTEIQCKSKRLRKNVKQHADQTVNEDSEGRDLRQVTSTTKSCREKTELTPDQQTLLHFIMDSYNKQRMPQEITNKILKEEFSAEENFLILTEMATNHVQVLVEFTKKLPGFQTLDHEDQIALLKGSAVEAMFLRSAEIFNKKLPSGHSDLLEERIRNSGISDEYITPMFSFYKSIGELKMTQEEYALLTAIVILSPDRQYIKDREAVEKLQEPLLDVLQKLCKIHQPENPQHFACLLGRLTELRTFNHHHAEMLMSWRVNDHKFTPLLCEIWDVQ
PROTOCOL TEXT: Human FXR (NR1H4) Assay (Gal4 promoter driven luciferase reporter, Indigo Bioscience kit)
APPLIED CONDITIONS: Human FXR (NR1H4) Assay, potency ranges
pEC50: −log10 of the molar value.

- CC[C@H]1[C@@H](O)[C@@H]2[C@H](CC[C@]3(C)[C@@H]([C@H](C)CCOC(=O)NS(=O)(=O)C4(C)CC4)CC[C@@H]23)[C@@]2(C)CC[C@@H](O)C[C@@H]12: > 7.00
- CC[C@H]1[C@@H](O)[C@@H]2[C@H](CC[C@]3(C)[C@@H]([C@H](C)CCOC(=O)NCC(C)(C)C)CC[C@@H]23)[C@@]2(C)CC[C@@H](O)C[C@@H]12: 6.00 to 7.00
- CC[C@H]1[C@@H](O)[C@@H]2[C@H](CC[C@]3(C)[C@@H]([C@H](C)CCOC(=O)N4CC[C@@H](CO)C4)CC[C@@H]23)[C@@]2(C)CC[C@@H](O)C[C@@H]12: > 7.00
- CC[C@H]1[C@@H](O)[C@@H]2[C@H](CC[C@]3(C)[C@@H]([C@H](C)CCOC(=O)NCCCCCO)CC[C@@H]23)[C@@]2(C)CC[C@@H](O)C[C@@H]12: > 7.00

Let us examine a further case.
input: Return reported pEC50; argument: "CC[C@H]1[C@@H](O)[C@@H]2[C@H](CC[C@]3(C)[C@@H]([C@H](C)COC(=O)NS(=O)(=O)c4ccc(-n5cccn5)cc4)CC[C@@H]23)[C@@]2(C)CC[C@@H](O)C[C@@H]12"
output: > 7.00
